# Test system: 817829-284-R-J1-PDC complex spheroids, viability
# procedure-details: Anticancer human tumor 817829-284-R-J1-PDC patient-derived colon adenocarcinoma cell line growth inhibition [GQUAD]
# setup-conditions: second compound 10 µM; first compound 3.16 µM; stronger effect = lower value
Exercise: state measured viability, T/C for each of the molecules provided.
I only need the number, in %, no unit after it.

Query: viability, T/C; subject: CC1COCCN1c1cc(-c2ccnn2C)c2ccnc(-c3ccn[nH]3)c2n1 (centres undefined) + Cc1cnc(CNC(=O)c2c(=O)c3ccc(N4CCCN(C)CC4)nc3n3c2sc2ccccc23)cn1
0.12

Query: viability, T/C; subject: CC(C)(O)C1CCC(Nc2ccc3ncc(-c4cccc(C(F)(F)F)c4)n3n2)CC1 (centres undefined) + Cc1cnc(CNC(=O)c2c(=O)c3ccc(N4CCCN(C)CC4)nc3n3c2sc2ccccc23)cn1
0.19

Query: viability, T/C; subject: O=c1[nH]cc(F)c(=O)[nH]1 + Cc1[nH]c2ccc(F)cc2c1-c1nc2c3cccnc3c3ncccc3c2[nH]1
7.19

Query: viability, T/C; subject: CC(C)n1c(=O)n(C)c2cnc3cc(F)c(-c4ccc(OCCCN5CCCCC5)nc4)cc3c21 + CN(C)c1ccc(Nc2c3ccc(NC(=O)CCN4CCCC4)cc3nc3cc(NC(=O)CCN4CCCC4)ccc23)cc1
21

Query: viability, T/C; subject: CCCS(=O)(=O)Nc1ccc(F)c(C(=O)c2c[nH]c3ncc(-c4ccc(Cl)cc4)cc23)c1F + Cc1cnc(CNC(=O)c2c(=O)c3ccc(N4CCCN(C)CC4)nc3n3c2sc2ccccc23)cn1
0.17

Query: viability, T/C; subject: COc1cccc2c1C(=O)c1c(O)c3c(c(O)c1C2=O)CC(O)(C(=O)CO)CC3OC1CC(N)C(O)C(C)O1 (centres undefined) + Cc1[nH]c2ccc(F)cc2c1-c1nc2c3cccnc3c3ncccc3c2[nH]1
0.48

Query: viability, T/C; subject: CC1COCCN1c1cc(C2(S(C)(=N)=O)CC2)nc(-c2ccnc3[nH]ccc23)n1 (centres undefined) + Cc1cnc(CNC(=O)c2c(=O)c3ccc(N4CCCN(C)CC4)nc3n3c2sc2ccccc23)cn1
0.23

Query: viability, T/C; subject: Nc1ccn(C2OC(CO)C(O)C2(F)F)c(=O)n1 (centres undefined) + Cc1[nH]c2ccc(F)cc2c1-c1nc2c3cccnc3c3ncccc3c2[nH]1
2.74

Query: viability, T/C; subject: O=C(c1cc(Cc2n[nH]c(=O)c3ccccc23)ccc1F)N1CCN(C(=O)C2CC2)CC1 + Cc1[nH]c2ccc(F)cc2c1-c1nc2c3cccnc3c3ncccc3c2[nH]1
37.6

Query: viability, T/C; subject: COc1cc(C2c3cc4c(cc3C(OC3OC5COC(C)OC5C(O)C3O)C3COC(=O)C23)OCO4)cc(OC)c1O (centres undefined) + Cc1[nH]c2ccc(F)cc2c1-c1nc2c3cccnc3c3ncccc3c2[nH]1
6.82

Query: viability, T/C; subject: C=CC(=O)N1CCN(c2nc(=O)n(-c3c(C)ccnc3C(C)C)c3nc(-c4c(O)cccc4F)c(F)cc23)C(C)C1 (centres undefined) + CN(C)c1ccc(Nc2c3ccc(NC(=O)CCN4CCCC4)cc3nc3cc(NC(=O)CCN4CCCC4)ccc23)cc1
84.3

Query: viability, T/C; subject: C#Cc1c(F)ccc2cc(O)cc(-c3ncc4c(N5CC6CCC(C5)N6)nc(OCC56CCCN5CC(F)C6)nc4c3F)c12 (centres undefined) + CN(C)c1ccc(Nc2c3ccc(NC(=O)CCN4CCCC4)cc3nc3cc(NC(=O)CCN4CCCC4)ccc23)cc1
61.5

Query: viability, T/C; subject: O=C(NO)c1cnc(N2CCN(S(=O)(=O)c3ccc4ccccc4c3)CC2)nc1 + Cc1[nH]c2ccc(F)cc2c1-c1nc2c3cccnc3c3ncccc3c2[nH]1
0.17

Query: viability, T/C; subject: Cc1cccc(N(C)C(=O)C2C(O)CCN2c2nc(C)cc(C(F)(F)F)c2C#N)c1 (centres undefined) + Cc1cnc(CNC(=O)c2c(=O)c3ccc(N4CCCN(C)CC4)nc3n3c2sc2ccccc23)cn1
0.24

* * *

Exercise: state measured viability, T/C for each of the compounds provided.
# System: 817829-284-R-J1-PDC complex spheroids, viability
# procedure-details: Anticancer human tumor 817829-284-R-J1-PDC cell line growth inhibition [GQUAD];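 note: spheroids exposed to agents for 7 days before readout; percent viability relative to DMSO vehicle control taken as 100%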
# setup-conditions: second compound 1 µM; first compound 3.16 µM; stronger effect = lower value
I only need the number, in %, no unit after it.

Query: viability, T/C; subject: Nc1ccn(C2OC(CO)C(O)C2(F)F)c(=O)n1 (stereo not drawn) + Cc1cnc(CNC(=O)c2c(=O)c3ccc(N4CCCN(C)CC4)nc3n3c2sc2ccccc23)cn1
4.41

Query: viability, T/C; subject: CC1COCCN1c1cc(C2(S(C)(=N)=O)CC2)nc(-c2ccnc3[nH]ccc23)n1 (stereo not drawn) + CN(C)c1ccc(Nc2c3ccc(NC(=O)CCN4CCCC4)cc3nc3cc(NC(=O)CCN4CCCC4)ccc23)cc1
10.8

Query: viability, T/C; subject: C#Cc1c(F)ccc2cc(O)cc(-c3ncc4c(N5CC6CCC(C5)N6)nc(OCC56CCCN5CC(F)C6)nc4c3F)c12 (stereo not drawn) + CN(C)c1ccc(Nc2c3ccc(NC(=O)CCN4CCCC4)cc3nc3cc(NC(=O)CCN4CCCC4)ccc23)cc1
105

* * *

# System: 817829-284-R-J1-PDC complex spheroids, viability
# procedure-details: Anticancer human tumor 817829-284-R-J1-PDC cell line growth inhibition [GQUAD];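 note: spheroids exposed to agents for 7 days before readout; percent viability relative to DMSO vehicle control taken as 100%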
# setup-conditions: second compound 1 µM; first compound 1 µM; stronger effect = lower value
readout-name: viability, T/C (%)
I only need the number, in %, no unit after it.

Query: viability, T/C; subject: CCCS(=O)(=O)Nc1ccc(F)c(C(=O)c2c[nH]c3ncc(-c4ccc(Cl)cc4)cc23)c1F + CN(C)c1ccc(Nc2c3ccc(NC(=O)CCN4CCCC4)cc3nc3cc(NC(=O)CCN4CCCC4)ccc23)cc1
98

Query: viability, T/C; subject: CC(=O)O[C@H]1C(=O)[C@@]2(C)[C@H]([C@H](OC(=O)c3ccccc3)[C@]3(O)C[C@H](OC(=O)[C@H](O)[C@@H](NC(=O)c4ccccc4)c4ccccc4)C(C)=C1C3(C)C)[C@]1(OC(C)=O)CO[C@@H]1C[C@@H]2O + CN(C)c1ccc(Nc2c3ccc(NC(=O)CCN4CCCC4)cc3nc3cc(NC(=O)CCN4CCCC4)ccc23)cc1
3.52

* * *

# Tested on: 817829-284-R-J1-PDC complex spheroids, viability
# procedure-details: Anticancer human tumor 817829-284-R-J1-PDC cell line growth inhibition [GQUAD];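 note: spheroids exposed to agents for 7 days before readout; percent viability relative to DMSO vehicle control taken as 100%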
# setup-conditions: second compound 3.16 µM; first compound 3.16 µM; stronger effect = lower value
readout-name: viability, T/C

Form field - read-out: viability, T/C; system: 817829-284-R-J1-PDC complex spheroids, viability; submitted item: C=CCn1c(=O)c2cnc(Nc3ccc(N4CCN(C)CC4)cc3)nc2n1-c1cccc(C(C)(C)O)n1 + CN(C)c1ccc(Nc2c3ccc(NC(=O)CCN4CCCC4)cc3nc3cc(NC(=O)CCN4CCCC4)ccc23)cc1
7.22%

Form field - read-out: viability, T/C; system: 817829-284-R-J1-PDC complex spheroids, viability; submitted item: COc1cc(C2c3cc4c(cc3C(OC3OC5COC(C)OC5C(O)C3O)C3COC(=O)C23)OCO4)cc(OC)c1O (centres undefined) + CN(C)c1ccc(Nc2c3ccc(NC(=O)CCN4CCCC4)cc3nc3cc(NC(=O)CCN4CCCC4)ccc23)cc1
30.7%

Form field - read-out: viability, T/C; system: 817829-284-R-J1-PDC complex spheroids, viability; submitted item: O=C(NO)c1cnc(N2CCN(S(=O)(=O)c3ccc4ccccc4c3)CC2)nc1 + Cc1[nH]c2ccc(F)cc2c1-c1nc2c3cccnc3c3ncccc3c2[nH]1
0.08%

Form field - read-out: viability, T/C; system: 817829-284-R-J1-PDC complex spheroids, viability; submitted item: C=CCn1c(=O)c2cnc(Nc3ccc(N4CCN(C)CC4)cc3)nc2n1-c1cccc(C(C)(C)O)n1 + Cc1[nH]c2ccc(F)cc2c1-c1nc2c3cccnc3c3ncccc3c2[nH]1
4.83%

Form field - read-out: viability, T/C; system: 817829-284-R-J1-PDC complex spheroids, viability; submitted item: CC1COCCN1c1cc(C2(O)CC3CCC(C2)O3)c2cnn(-c3ccn[nH]3)c2n1 (centres undefined) + Cc1[nH]c2ccc(F)cc2c1-c1nc2c3cccnc3c3ncccc3c2[nH]1
3.38%

Form field - read-out: viability, T/C; system: 817829-284-R-J1-PDC complex spheroids, viability; submitted item: CC(=O)O[C@H]1C(=O)[C@@]2(C)[C@H]([C@H](OC(=O)c3ccccc3)[C@]3(O)C[C@H](OC(=O)[C@H](O)[C@@H](NC(=O)c4ccccc4)c4ccccc4)C(C)=C1C3(C)C)[C@]1(OC(C)=O)CO[C@@H]1C[C@@H]2O + CN(C)c1ccc(Nc2c3ccc(NC(=O)CCN4CCCC4)cc3nc3cc(NC(=O)CCN4CCCC4)ccc23)cc1
4.3%

Form field - read-out: viability, T/C; system: 817829-284-R-J1-PDC complex spheroids, viability; submitted item: CC1COCCN1c1cc(-c2ccnn2C)c2ccnc(-c3ccn[nH]3)c2n1 (centres undefined) + Cc1[nH]c2ccc(F)cc2c1-c1nc2c3cccnc3c3ncccc3c2[nH]1
3.53%

Form field - read-out: viability, T/C; system: 817829-284-R-J1-PDC complex spheroids, viability; submitted item: CC1COCCN1c1cc(C2(S(C)(=N)=O)CC2)nc(-c2ccnc3[nH]ccc23)n1 (centres undefined) + CN(C)c1ccc(Nc2c3ccc(NC(=O)CCN4CCCC4)cc3nc3cc(NC(=O)CCN4CCCC4)ccc23)cc1
13%

Form field - read-out: viability, T/C; system: 817829-284-R-J1-PDC complex spheroids, viability; submitted item: COc1ncnc(C2CC2)c1-c1ncc2cnn(Cc3ccc(-c4nc(C(F)(F)F)cn4C(C)C)cc3)c2n1 + CN(C)c1ccc(Nc2c3ccc(NC(=O)CCN4CCCC4)cc3nc3cc(NC(=O)CCN4CCCC4)ccc23)cc1
103%

Form field - read-out: viability, T/C; system: 817829-284-R-J1-PDC complex spheroids, viability; submitted item: COc1ccc([C@@H](O)c2cc(-c3ncnc4cc(N5CCOCC5)ccc34)c(F)cc2Cl)nn1 + Cc1cnc(CNC(=O)c2c(=O)c3ccc(N4CCCN(C)CC4)nc3n3c2sc2ccccc23)cn1
15%

Form field - read-out: viability, T/C; system: 817829-284-R-J1-PDC complex spheroids, viability; submitted item: COc1ncnc(C2CC2)c1-c1ncc2cnn(Cc3ccc(-c4nc(C(F)(F)F)cn4C(C)C)cc3)c2n1 + Cc1cnc(CNC(=O)c2c(=O)c3ccc(N4CCCN(C)CC4)nc3n3c2sc2ccccc23)cn1
21.6%

Form field - read-out: viability, T/C; system: 817829-284-R-J1-PDC complex spheroids, viability; submitted item: CC(C)n1c(=O)n(C)c2cnc3cc(F)c(-c4ccc(OCCCN5CCCCC5)nc4)cc3c21 + Cc1cnc(CNC(=O)c2c(=O)c3ccc(N4CCCN(C)CC4)nc3n3c2sc2ccccc23)cn1
18.8%

Form field - read-out: viability, T/C; system: 817829-284-R-J1-PDC complex spheroids, viability; submitted item: C#Cc1c(F)ccc2cc(O)cc(-c3ncc4c(N5CC6CCC(C5)N6)nc(OCC56CCCN5CC(F)C6)nc4c3F)c12 (centres undefined) + CN(C)c1ccc(Nc2c3ccc(NC(=O)CCN4CCCC4)cc3nc3cc(NC(=O)CCN4CCCC4)ccc23)cc1
117%

Form field - read-out: viability, T/C; system: 817829-284-R-J1-PDC complex spheroids, viability; submitted item: O=C(c1cc(Cc2n[nH]c(=O)c3ccccc23)ccc1F)N1CCN(C(=O)C2CC2)CC1 + Cc1[nH]c2ccc(F)cc2c1-c1nc2c3cccnc3c3ncccc3c2[nH]1
54.5%

Form field - read-out: viability, T/C; system: 817829-284-R-J1-PDC complex spheroids, viability; submitted item: CC(=O)O[C@H]1C(=O)[C@@]2(C)[C@H]([C@H](OC(=O)c3ccccc3)[C@]3(O)C[C@H](OC(=O)[C@H](O)[C@@H](NC(=O)c4ccccc4)c4ccccc4)C(C)=C1C3(C)C)[C@]1(OC(C)=O)CO[C@@H]1C[C@@H]2O + Cc1[nH]c2ccc(F)cc2c1-c1nc2c3cccnc3c3ncccc3c2[nH]1
3.38%

Form field - read-out: viability, T/C; system: 817829-284-R-J1-PDC complex spheroids, viability; submitted item: CC(=O)O[C@H]1C(=O)[C@@]2(C)[C@H]([C@H](OC(=O)c3ccccc3)[C@]3(O)C[C@H](OC(=O)[C@H](O)[C@@H](NC(=O)c4ccccc4)c4ccccc4)C(C)=C1C3(C)C)[C@]1(OC(C)=O)CO[C@@H]1C[C@@H]2O + Cc1cnc(CNC(=O)c2c(=O)c3ccc(N4CCCN(C)CC4)nc3n3c2sc2ccccc23)cn1
12.7%

Form field - read-out: viability, T/C; system: 817829-284-R-J1-PDC complex spheroids, viability; submitted item: Nc1ccn(C2OC(CO)C(O)C2(F)F)c(=O)n1 (centres undefined) + Cc1cnc(CNC(=O)c2c(=O)c3ccc(N4CCCN(C)CC4)nc3n3c2sc2ccccc23)cn1
1%

Form field - read-out: viability, T/C; system: 817829-284-R-J1-PDC complex spheroids, viability; submitted item: O=c1[nH]cc(F)c(=O)[nH]1 + Cc1cnc(CNC(=O)c2c(=O)c3ccc(N4CCCN(C)CC4)nc3n3c2sc2ccccc23)cn1
20.1%

Form field - read-out: viability, T/C; system: 817829-284-R-J1-PDC complex spheroids, viability; submitted item: O=C(c1cc(Cc2n[nH]c(=O)c3ccccc23)ccc1F)N1CCN(C(=O)C2CC2)CC1 + Cc1cnc(CNC(=O)c2c(=O)c3ccc(N4CCCN(C)CC4)nc3n3c2sc2ccccc23)cn1
20%
